Biological target: T1, human CLDN9 (human, UniProt O95484 1-217)
T1 construct: It was expressed on 293T cells from human CLDN9/pCMV6-Entry bought from OriGene; also called claudin-9
T1 sequence: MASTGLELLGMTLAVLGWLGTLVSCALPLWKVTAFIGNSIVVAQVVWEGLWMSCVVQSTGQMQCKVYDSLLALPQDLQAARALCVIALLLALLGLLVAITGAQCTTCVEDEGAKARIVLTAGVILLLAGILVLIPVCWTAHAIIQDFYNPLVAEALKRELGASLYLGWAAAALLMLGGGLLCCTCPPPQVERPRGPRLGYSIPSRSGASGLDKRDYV
Assay: flow cytometry on 293T cells transiently transfected with human CLDN9
quantity-kind: binding result

mouse anti-CLDN6 antibody B1 (antibody, V domains shown, Mouse monoclonal antibody purified from the culture supernatant of hybridoma 218B1; a mouse IgG1 was used as the control; also called B1 antibody; 218B1) VH: EVQLQQSGPELVKPGASVKISCKTSGYTFTEYTMHWVQQSHGKSLEWIGGVNPNSGDTSYNQKFKGKATLTVDKSSSTAYMELRSLTSEDSAVYYCARPGGYDVGYYAMDYWGQGTSVTVSS VL: DIQMTQTASSLSASLGDRVTISCRASQDINNYLNWYQQKPDGTVKLLIYFTSRLHSGVPSRFSGSGSGTHYSLTITNLEQEDIATYFCQQGYPLPWTFGGGTKLEIK: binds
mouse anti-CLDN6 antibody C7 (antibody, V domains shown, Mouse monoclonal antibody purified from the culture supernatant of hybridoma 218C7; also called C7 antibody; 218C7) VH: EVQLQQSGPELVKPGASVKISCKTSGYTFTEYTMHWVQQSHGKSLEWIGGVNPNSGDTSYNQKFKGKATLTVDKSSSTAYMELRSLTSEDSAVYYCARPGGYDVGYYAMDYWGQGTSVTVSS VL: DIQMTQTASSLSASLGDRVTISCRASQDINNYLNWYQQKPDGTVKLLIYSTSRLHSGVPSRFSGSGSGTHYSLTITHLEQEDIATYFCQQGYPLPWTFGGGTKLEIK: binds
humanized anti-CLDN6 antibody H1L3 (antibody, human IgG1, kappa, L234A L235A, V domains shown, Heavy chain hH1 with light chain hL3; Human IgG1 LALA constant region and human kappa light chain; also called H1L3 antibody) VH: QVQLVQSGAEVKKPGASVKVSCKASGYTFTEYTMHWVRQAPGQGLEWMGGVNPNSGDTSYAQKFQGRVTITADTSTSTAYMELSSLRSEDTAVYYCARPGGYDVGYYAMDYWGQGTLVTVSS VL: DIQMTQSPSSLSASVGDRVTITCRASQDINNYLNWYQQKPGGAVKLLIYFTSRLHSGVPSRFSGSGSGTDYTLTISSLQPEDFATYYCQQGYPLPWTFGGGTKVEIKR: binds

Attribution: patent US20220395579A1
